- System: MOLT-4
- Assay Remarks: NCI tumour cell line growth inhibition, 48 h
The source made the active and inactive calls. Cut-off read from the data, not from the text of the source: active = GI50 up to about 1.1 µM and inactive = higher.
One label from this list, please: 1.0 for active, 0.0 for inactive

Dear all, I need the recorded test outcome for OCC1OC(n2cnc3c(Cl)nc(Nc4ccc(Cl)c(Cl)c4)nc32)CC1O (stereo not drawn) , thank you.
0.0

Would you kindly repeat that for CC(Oc1ccccc1Cl)C(=O)NN1C(=O)CC(=O)N(c2ccc(Cl)cc2)C1=S (stereo not drawn) ?
0.0

Proceed to `Nc1ccc(S2(c3ccc(N)cc3)C=C(c3ccccc3)C(c3ccccc3)=C2)cc1`
0.0

Would you kindly repeat that for O=C(O)C1C2CCC(C2)C1c1ccccc1 (stereo not drawn) ?
0.0

Next molecule up: `NC(=O)NNc1nc(-c2ccccc2)cs1`
0.0

----------
- Tested on: NCI-H460
- Assay Remarks: NCI tumour cell line growth inhibition, 48 h
Calls of active or inactive are those of the source. Rule as the data show it: active = GI50 up to about 1.1 µM and inactive = higher.
Answer with one of the outcomes active, inactive

Examples with answers:
• OCC1OC(n2cnc3c(Cl)nc(Nc4ccc(Cl)c(Cl)c4)nc32)CC1O (centres undefined) = inactive
• CC(=O)Nc1ccc(C2CC(c3ccc([N+](=O)[O-])cc3)=Nc3ccccc3[S+]2[O-])cc1 (centres undefined) = inactive
• NNC(=S)N/N=C(\c1nc2ccc(Cl)cc2nc1O)C(O)c1ccc(Cl)cc1Cl (centres undefined) = inactive

Could you check what this test reported for `C/C(=N\NC(=S)N(C)C)c1nc2cccnc2[nH]1` ?
active

And what about the compound O=C1C2CC=CCC2C(=O)N1n1c(Cc2ccccc2)n[nH]c1=O (centres undefined) ?
inactive

Try the compound `[O-]c1c2cc(-[n+]3c(-c4ccccc4)cc(-c4ccccc4)cc3-c3ccccc3)cc1CO[C@@H](c1ccccc1)[C@H](c1ccccc1)OCCOCCO[C@@H](c1ccccc1)[C@H](c1ccccc1)OC2`
active

Again, but for `CC(C)(C)N1C=[N+](C(C)(C)C)CC1`
inactive

Now the same for `CC(C)(CO)CNc1nc(N)nc(Cl)c1N`
inactive

Follow-up item: COc1ccc(C2SC(=N)Nc3c2c(C)nn3C(=O)c2ccc(Cl)cc2)cc1OC (centres undefined)
inactive

----------
- Tested on: Hs-578T
- Assay Remarks: NCI tumour cell line growth inhibition, 48 h
The source made the active and inactive calls. Rule as the data show it: active = GI50 up to about 1.1 µM and inactive = higher.
Recorded GI50 by entry

Examples from the recorded data:
- Nc1ccccc1N/C=C\C(=O)C(Cl)(Cl)Cl: 48.8 µM (inactive)
- O=[N+]([O-])C(=C1NCCN1)C(Cl)=C(Cl)Cl: > 100 µM (inactive)
- CCCCCCCCCCCCCCCCOP(=O)([O-])OCC[N+](C)(C)C1CC(C)(C)N(O)C(C)(C)C1: > 100 µM (inactive)
- CN(/N=C(\C(=O)O)c1ccccc1)C1=NCCCN1: > 100 µM (inactive)
- COC(=O)C(CCC1C=CCC1)/N=C\c1ccccc1 (configuration not stated): > 100 µM (inactive)

I would be grateful if you could share the reported GI50 for `O=C(COc1ccc(OCC(=O)N2C(=O)CC/C2=N\c2ccc(Cl)cc2)cc1)N1C(=O)CS/C1=N\c1ccc(Cl)cc1` .
> 100 µM (inactive)

Also, `Cc1cnc2sn(-c3ccc(Oc4ccccc4)cc3)c(=O)c2c1` please.
21.1 µM (inactive)

Now consider `Cc1cccc(-c2cc(O)c3c(C)ccnc3n2)c1` and answer again.
0.356 µM (active)

Continue with `O=C(/C=C/c1cccc(Br)c1)N1CCN(CCOC(c2ccccc2)c2ccccc2)CC1`
> 100 µM (inactive)

Can you check CC1=NNC(=O)C1C1CC(c2c[nH]c3ccccc23)=NN(c2ccccc2)C1=O (configuration not stated) next?
29.8 µM (inactive)

Also check `O=S(=O)(/N=C(\NO)Nc1ccc(Cl)cc1)c1ccc(-c2ccccn2)s1`
28.8 µM (inactive)

Next molecule up: `COc1cc(-c2cc(=O)c3cc4c(cc3[nH]2)OCO4)cc(OC)c1O`
> 10 µM (inactive)

----------
- System: OVCAR-5
- Assay Remarks: NCI tumour cell line growth inhibition, 48 h
Activity calls are given as the source filed them. Rule as the data show it: active = GI50 up to about 1.1 µM and inactive = higher.
Measurement Label: GI50

Please review the entries below; each comes with its answer.
* O=C1Nc2ccccc2/C1=C1\C(=O)Nc2ccccc21 | 3.48 µM (inactive)
* COc1ccc(CC2=NCCc3cc(OC)c(OC)cc32)cc1Br | 1.99 µM (inactive)
* COc1ccc(C2SC(=N)Nc3c2c(C)nn3C(=O)c2ccc(Cl)cc2)cc1OC (configuration not stated) | > 10 µM (inactive)
* Cc1[nH]nc(C(=O)N/N=C/c2ccccc2Cl)c1/N=N\N(C)C | 18 µM (inactive)
* C=CNC(=S)n1nc(-c2ccccc2NC(=O)C(F)(F)F)c(=O)n(C(=S)NC=C)c1=S | 26.7 µM (inactive)

Looking for the measured GI50 of CCOC(=O)NC(C(=O)OCC)(N1CCN(c2cc3c(cc2F)c(=O)c(C(=O)O)cn3CC)CC1)C(F)(F)F (configuration not stated) , can you help?
> 100 µM (inactive)

Try `Cl/C(=C\C=N\c1ccc(I)cc1)c1ccc2ccccc2c1` next.
34.6 µM (inactive)

Let us now turn to CC1C2C=C(O)C(=O)C(C2=O)C1c1ccccc1 (configuration not stated)
> 100 µM (inactive)

Same question for `c1ccc2c(c1)c1ccccc1n2Cn1c2ccccc2c2ccccc21` please.
> 100 µM (inactive)

----------
- Tested on: MDA-MB-231
- Assay Remarks: NCI tumour cell line growth inhibition, 48 h
Active and inactive are the calls of the source. Rule as the data show it: active = GI50 up to about 1.1 µM and inactive = higher.
Valid outcomes are listed here; reply with one: 1 (active), 0 (inactive)

For orientation, consider the following solved cases.
* Cc1[nH]nc(C(=O)N/N=C/c2ccccc2Cl)c1/N=N\N(C)C | 0
* Nc1ncnc2oc(-c3cccs3)nc12 | 0
* COc1ccc2nc3cc(Cl)ccc3c(NCCCN(Cc3cc(OC)c(OC)c(OC)c3)Cc3cc(OC)c(OC)c(OC)c3)c2c1 | 1

What call does the record list for CC(Oc1ccccc1Cl)C(=O)NN1C(=O)CC(=O)N(c2ccc(Cl)cc2)C1=S (stereo not given) ?
0

Field entry: `Oc1ccc([I+]c2ccccc2)cc1O`
0

Do the same for `CN(C)Cc1ccc(-c2cc3onc(-c4ccccc4)c3c(=O)n2C)cc1` please
0

And then `Cc1cccc2sc(NC(=O)c3cc([N+](=O)[O-])ccc3Cl)nc12` , what is it?
0

Request: CC(NC(=O)c1ccc(OP(=O)(OCc2ccc([N+](=O)[O-])o2)N(C)CCCCCl)cc1)c1ccc(OCC2CCCCC2)c(C(N)=O)c1 (stereo not given)
0

Now the same for `O=C(CNc1ccccc1[N+](=O)[O-])Nn1cnc2ccc(S(=O)(=O)Nc3ccccc3[N+](=O)[O-])cc2c1=O`
0

And COc1cc(C2c3[nH]c4ccccc4c3[C@@H](Nc3ccc(C#N)cc3)[C@H]3COC(=O)N23)cc(OC)c1O (stereo not given in full) ?
1

And `CCCCCCC(=O)OC[n+]1ccc2c(C)c3[nH]c4ccc(OC)cc4c3c(C)c2c1` ?
1

----------
Reported GI50 values follow for various compounds
- System: UACC-257
- Assay Remarks: NCI tumour cell line growth inhibition, 48 h
The source made the active and inactive calls. No stated cut-off is given here; in the data, active = GI50 up to about 1.1 µM and inactive = higher.

• Clc1cc(OCc2nn3c(Cc4ccccc4)nnc3s2)ccc1OCc1nn2c(Cc3ccccc3)nnc2s1 = > 100 µM (inactive)

Report GI50 for `Cc1c2cc[n+]([O-])cc2c(C)c2c1[nH]c1ccccc12` please.
17.7 µM (inactive)

Now the compound `COc1cc(-c2cc(=O)c3cc4c(cc3[nH]2)OCO4)cc(OC)c1O`
> 10 µM (inactive)

// same read-out, input: `CC(C)(Oc1ccc2c(=O)cc(-c3ccccc3)oc2c1)C(=O)Nc1c(Cl)cccc1Cl`
> 100 µM (inactive)

Check `N#C/C(=C/NC(=S)c1ccncc1)C(N)=O` too.
> 100 µM (inactive)

What would you report for `CCN(CC)CCN(/C(=N/c1ccccc1)N1CCCCC1)c1ccccc1` ?
10.6 µM (inactive)

----------
- Test system: A498
- Assay Remarks: NCI tumour cell line growth inhibition, 48 h
Active and inactive are the calls of the source. No stated cut-off is given here; in the data, active = GI50 up to about 1.1 µM and inactive = higher.
Permitted responses: active, inactive

Would you please look over these solved cases?
• Cc1ccc(S(=O)(=O)N2CCCSCCSCCCN(S(=O)(=O)c3ccc(C)cc3)CC2)cc1 = inactive
• CCN(CC)c1c(C(=O)/C=C/c2ccc(OC)cc2)c(-c2ccccc2)nn(C)c1=O = inactive
• [O-]c1c2cc(-[n+]3c(-c4ccccc4)cc(-c4ccccc4)cc3-c3ccccc3)cc1CO[C@@H](c1ccccc1)[C@H](c1ccccc1)OCCOCCO[C@@H](c1ccccc1)[C@H](c1ccccc1)OC2 = active
• CC(C)(CC#N)c1cc(CC(C)(C)c2cc(CC(C)(C)c3cc(C(C)(C)C4(C)OCCO4)no3)no2)no1 = inactive
• COc1ccc2nc3n(c2c1)C(c1c(F)cccc1Cl)SC3 (stereo unspecified) = inactive
• CC(CC=O)Nc1nn2c(=O)c3ccccc3nc2s1 (stereo unspecified) = inactive
• C=C1C(=O)OC2C1C(OC(=O)/C(C)=C/C)CC1(C)C(=O)CCC(=C)C21 (stereo unspecified) = inactive
• Cc1ccc(-c2cc(N)n(-c3nc4c([nH]3)c(=O)n(C)c(=O)n4C)n2)cc1 = inactive
• S=c1[nH]c(Cl)cc2nc(Cl)cn12 = inactive
• N=C1CSC2=NC3=C(CCC/C3=C\c3ccccc3)C(c3ccccc3)N12 (stereo unspecified) = inactive

Assay result, entry `Cc1nnc2n1-c1ccccc1N(Cc1ccccc1)CC2` — outcome?
inactive

Also need `NC(=O)NC1C(c2ccccc2)=C1c1ccccc1` , thanks.
inactive

`O=C1C=C(c2c(-c3ccccc3)[nH]c3ccccc23)C(=O)N1c1ccccc1` , same question.
inactive

Also need CC(C)(C)C1(O)C=C(O)C(=O)N1NC(=O)c1ccccc1Nc1ccccc1 (stereo unspecified) , thanks.
inactive

Also CC(O)CC(O)(C(F)(F)F)C(F)(F)F (stereo unspecified) ?
inactive
